meta.source: the NIST ThermoML archive (doi:10.1021/je060139a)

- experimentDescription: refractive index (Na D-line) (dimensionless); xn = mol fraction of the nth substance listed
- appliedConditions: 298.18 K; 100.5 kPa; Liquid; Standard Abbe refractometry; x1 = 0.85
observable: refractive index
The response must contain the number and no unit.

compound="CC(=O)OCc1ccccc1 [benzyl ethanoate] + CCO" reported=1.49076

Which refractive index is reported for this compound? CCOC(=O)CC(C)C [ethyl 3-methylbutanoate] + CCO
1.39169

Query: refractive index; subject: CCOC(=O)CC(C)=O [ethyl 3-oxobutanoate] + CCO
1.4126

What refractive index value was documented for this compound, CCC(=O)OCc1ccccc1 [benzyl propanoate] + CCO ?
1.48725

Fill in: refractive index of COC(=O)c1ccccc1 [methyl benzoate] + CCO is ___
1.50347

So what does the record say about refractive index for CCOC(=O)c1ccccc1O [ethyl 2-hydroxybenzoate] + CCO ?
1.51035
